Documented OD450 nm across a set of binders
- experimental.target: T1, recombinant human PCSK9 protein, His-tagged (Immunogen A, hPCSK9-His) (human, UniProt Q8NBP7 31-692, limits assumed, biotin-labelled in the ELISA and blocking assays (Biotin labeling kit))
- T1 construct: also called human PCSK9-His; recombinant hPCSK9-His; not shown: His tag
- method.notes: ELISA, biotin-hPCSK9-His on streptavidin plate; antibody 0.000067 nM
measured.attribute: OD450 nm (OD450 nm)

>>> measured_number("152G2F7, chimeric anti-PCSK9 mAb purified from hybridoma (antibody, V domains shown, From Harbour H2L2 mice: human variable regions, rat constant regions) VH: EVQLVESGGGLVQPGGSLRLSCAASEFTFGGYWMTWVRQAPGKGLEWVANIKQDGSEKYYVDSVKGRFTISRDNAKNSLYLHMNSLRAEDTAVYYCARDRTTMIRGVSLYYYYYGMDVWGQGTAVTVSS VL: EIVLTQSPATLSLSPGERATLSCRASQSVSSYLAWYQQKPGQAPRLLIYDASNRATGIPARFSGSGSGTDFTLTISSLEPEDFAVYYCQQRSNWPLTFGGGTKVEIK")
0.18
>>> measured_number("139G1C5, chimeric anti-PCSK9 mAb purified from hybridoma (antibody, V domains shown, From Harbour H2L2 mice: human variable regions, rat constant regions) VH: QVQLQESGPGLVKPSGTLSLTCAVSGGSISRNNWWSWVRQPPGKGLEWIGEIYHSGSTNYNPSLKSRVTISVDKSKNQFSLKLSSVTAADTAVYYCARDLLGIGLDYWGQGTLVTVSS VL: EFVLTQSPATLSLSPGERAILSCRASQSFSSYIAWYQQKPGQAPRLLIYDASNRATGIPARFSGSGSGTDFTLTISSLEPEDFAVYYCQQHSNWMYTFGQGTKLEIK")
0.19
>>> measured_number("103C11E8, chimeric anti-PCSK9 mAb purified from hybridoma (antibody, V domains shown, From Harbour H2L2 mice: human variable regions, rat constant regions) VH: QVQLQESGPGLVKPSGTLSLTCAVSGGSISSSNWWSWVRQPPGKGLEWIGEIYHSGSTNYNPSLKSRVTISVDKSKNQFSLKLSSVTAADTAVYYCARGIAVAGTDVMDAWGQGASVTVSS VL: EIVLTQSPATLSLSPGERATLSCRASQSVSSYLVWYQQKSGQAPRLLIYGTSNRATGIPARFSGSGSGTDFTLTISSLEPEDFALYYCQQRGNWMYTFGQGTKLEIK")
0.11
